Hey, just so you know, these numbers are from paper PMC9608620.

Reported values of melting point for individual entries

As a guide, the following entries are already answered.
What measured melting point goes with COC(=O)/C=C1/SC(=NNC(=O)COc2cc(=O)[nH]c3ccccc23)N(Cc2ccccc2)C1=O ? 251 to 253 °C

Field request: melting point | item: CCOC(=O)/C=C1/S/C(=N\NC(=O)COc2cc(=O)[nH]c3ccc(C)cc23)N(Cc2ccccc2)C1=O 233 to 235 °C

Param item = CCOC(=O)/C=C1/S/C(=N\NC(=O)COc2cc(=O)n(C)c3ccccc23)N(Cc2ccccc2)C1=O ; retrieve measured melting point. 243 to 245 °C

Can you look up the measured melting point of C=CCN1C(=O)/C(=C\C(=O)OC)S/C1=N\NC(=O)COc1cc(=O)[nH]c2ccc(C)cc12 for me? 232 to 233 °C

May I ask what melting point has been recorded for C=CCNC(=S)NNC(=O)COc1cc(=O)n(C)c2ccccc12 ? 177 to 179 °C

Give its melting point value. Item: C=CCNC(=S)NNC(=O)COc1cc(=O)[nH]c2ccccc12 169 to 171 °C

Please give the measured melting point for this compound: C=CCN1C(=O)/C(=C\C(=O)OC)SC1=NNC(=O)COc1cc(=O)[nH]c2ccccc12 244 to 246 °C

Please find the next compound below.
Entry under review: Cc1ccc2[nH]c(=O)cc(OCC(=O)NNC(=S)NCc3ccccc3)c2c1 . Reported melting point? 183 to 185 °C

---

- target desc: urease (Jack bean urease) (Canavalia ensiformis)
- method description: biochemical
- Format: biochemical
pIC50: −log10 of the molar value.
Please note: y applies when pIC50 is 5 or greater, and n applies otherwise.

Could you tell me if the measured pIC50 of C=CCN1C(=O)/C(=C\C(=O)OC)SC1=NNC(=O)COc1cc(=O)[nH]c2ccccc12 reaches 5 or more? n

Assess whether reported pIC50 for COC(=O)/C=C1/SC(=NNC(=O)COc2cc(=O)n(C)c3ccccc23)N(c2ccccc2)C1=O sits at 5 or higher. n

Decide: is the reported value of pIC50 for Cc1ccc2[nH]c(=O)cc(OCC(=O)NNC(=S)NCc3ccccc3)c2c1 equal to or greater than 5? y

Item C=CCN1C(=O)/C(=C\C(=O)OCC)S/C1=N\NC(=O)COc1cc(=O)[nH]c2ccccc12 with pIC50 of 5 or above? n

Has Cn1c(=O)cc(OCC(=O)NNC(=S)NCc2ccccc2)c2ccccc21 a recorded pIC50 greater than or equal to 5? y

Determine whether this molecule has pIC50 no lower than 5: CCOC(=O)/C=C1/SC(=NNC(=O)COc2cc(=O)n(C)c3ccccc23)N(c2ccccc2)C1=O n

Confirm if pIC50 reported for the molecule CCOC(=O)/C=C1/S/C(=N\NC(=O)COc2cc(=O)[nH]c3ccccc23)N(Cc2ccccc2)C1=O is 5 or above. n

---

- target desc: urease (Jack bean urease) (Canavalia ensiformis, UniProt P07374)
- Sequence (P07374 whole entry, looked up): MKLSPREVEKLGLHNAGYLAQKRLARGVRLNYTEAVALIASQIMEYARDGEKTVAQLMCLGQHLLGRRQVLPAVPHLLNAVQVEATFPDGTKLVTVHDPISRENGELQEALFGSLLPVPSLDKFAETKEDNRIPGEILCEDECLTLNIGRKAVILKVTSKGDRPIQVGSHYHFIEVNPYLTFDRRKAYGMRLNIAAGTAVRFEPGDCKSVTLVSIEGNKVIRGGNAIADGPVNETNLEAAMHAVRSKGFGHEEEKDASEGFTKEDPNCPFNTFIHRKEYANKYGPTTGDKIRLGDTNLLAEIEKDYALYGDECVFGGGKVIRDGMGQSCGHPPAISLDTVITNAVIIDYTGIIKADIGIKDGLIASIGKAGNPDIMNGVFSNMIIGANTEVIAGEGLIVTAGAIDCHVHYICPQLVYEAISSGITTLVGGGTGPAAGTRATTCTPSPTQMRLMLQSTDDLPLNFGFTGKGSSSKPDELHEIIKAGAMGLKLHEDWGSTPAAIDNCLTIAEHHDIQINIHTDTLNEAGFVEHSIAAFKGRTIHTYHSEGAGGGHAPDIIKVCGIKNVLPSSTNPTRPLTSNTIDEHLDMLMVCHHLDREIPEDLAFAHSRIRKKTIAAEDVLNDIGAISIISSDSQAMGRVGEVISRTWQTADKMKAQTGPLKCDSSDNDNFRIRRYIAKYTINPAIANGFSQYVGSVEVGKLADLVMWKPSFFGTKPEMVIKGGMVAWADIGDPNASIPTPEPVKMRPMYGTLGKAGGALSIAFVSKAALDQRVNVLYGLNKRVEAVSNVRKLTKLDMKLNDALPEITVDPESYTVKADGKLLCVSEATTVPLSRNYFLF
- method description: biochemical
- Type: biochemical
observable: IC50 (µM)
Reply numerically in µM, unit not repeated.

Can you look up IC50 on urease (Jack bean urease) (Canavalia ensiformis, UniProt P07374) for Cn1c(=O)cc(OCC(=O)NNC(=S)Nc2ccccc2)c2ccccc21 [Compound 5c] ? 1.83

What is its IC50 for urease (Jack bean urease) (Canavalia ensiformis, UniProt P07374)? Entry: C=CCN1C(=O)/C(=C\C(=O)OCC)S/C1=N\NC(=O)COc1cc(=O)[nH]c2ccc(C)cc12 [Compound 7e] 29.8

Please find the next molecule below.
Lookup: IC50 / urease (Jack bean urease) (Canavalia ensiformis, UniProt P07374) / C=CCN1C(=O)/C(=C\C(=O)OC)SC1=NNC(=O)COc1cc(=O)n(C)c2ccccc12 [Compound 7a] 36.3
